Test system: P94_40
EXPERIMENTAL_DETAILS: qHTS profiling for inhibitors of Plasmodium falciparum proliferation (AID 504749); further: nearly all actives have a fitted effect of over 60% in size
ASSAY_CONTEXT: P. falciparum in erythrocytes, SYBR Green DNA, 72 h; series mostly up to 28.7 µM
Records with an inconclusive call do not appear. Activity calls are given as the source filed them. The call rests on the fitted dose curve; in most records, active means well fitted inhibition curve with a large enough effect; inconclusive means small, poorly fitted or top-dose-only effect; inactive means flat fitted curve, though single readings scatter.
Response enum: active, inactive

>>> print(df.to_string())
                                   molecule  tested_on  answer_label
0  COc1ccc(C(=O)CC(=O)c2ccc(C(C)(C)C)cc2)cc1     P94_40      inactive
1                             O=S(=O)(O)CCS     P94_40      inactive
2                  CCCN[C@H]1CCc2nc(N)sc2C1     P94_40      inactive

Data request: Give the logged outcome of this assay for the following molecule: "CN1CCN(c2c(F)cc3c(=O)c(C(=O)O)cn4c3c2OCN4C)CC1"
Data returned: inactive

Data request: Also "CC[C@H](NC(C)C)[C@H](O)c1ccc(O)c2[nH]c(=O)ccc12" ?
Data returned: inactive

Data request: Next molecule up: "CCOC(=O)c1ccc(C#Cc2ccc3c(c2)C(C)(C)CCS3)nc1"
Data returned: inactive

Data request: Please do the same for "O=c1cc(O)c(Cl)c[nH]1" as well.
Data returned: inactive

Data request: Next molecule: "COc1cnc(NS(=O)(=O)c2ccc(N)cc2)nc1"
Data returned: inactive

Data request: Follow-up entry: "Cc1ccnc2c1NC(=O)c1cccnc1N2C1CC1"
Data returned: inactive

Data request: Also "CNCC[C@H](Oc1cccc2ccccc12)c1cccs1" , if possible.
Data returned: active

Data request: Do the same for "COc1cc(NCc2ccc3nc(N)nc(N)c3c2C)cc(OC)c1OC" please
Data returned: active

Data request: Same read-out for "Cc1cccc(Nc2ccncc2S(=O)(=O)NC(=O)NC(C)C)c1" ?
Data returned: inactive

* * *

EXPERIMENTAL_DETAILS: Quantitative High-Throughput drug screen in 47 multiple myeloma cell lines against the NCATS MIPE library collection: MMM1_PLB cell viability assay (AID 1918976); further: nearly all actives have a fitted effect of over 35% in size
ASSAY_CONTEXT: MMM1 myeloma cells viability, CellTiter-Glo, 48 h; series mostly up to 45.8 µM
Results filed as inconclusive are left out. The source made the active and inactive calls. The call rests on the fitted dose curve; in most records, active means well fitted cell-killing curve with a large enough effect; inconclusive means small, poorly fitted or top-dose-only effect, or effect the other way; inactive means no such curve, though single readings can be large or run the other way.
Please state which outcome applies, choosing from true = active, false = inactive

Here's what some known entries look like.
In [3]: df
Out[3]:
                                   compound  answer_label
0  CCCc1nc(C)c2c(=O)[nH]c(-c3cc(S(=O)(=O)N4CCN(CC)CC4)ccc3OCC)nn12          true
1  CN1CCCC(n2nc(Cc3ccc(Cl)cc3)c3ccccc3c2=O)CC1 (stereo not given)          true
2  CC[C@H](C)C(=O)O[C@H]1C[C@@H](C)C=C2C=C[C@H](C)[C@H](CC[C@@H]3C[C@@H](O)CC(=O)O3)[C@H]21          true
3  COc1ccc2cc3[n+](cc2c1OC)CCc1cc2c(cc1-3)OCO2          true
4  COc1ccc(C(=O)CC(=O)c2ccc(C(C)(C)C)cc2)cc1          true

Data request: Kindly provide the recorded test outcome for the following compound: "N=C(N)c1ccc(OCCCCCOc2ccc(C(=N)N)cc2)cc1"
Data returned: true

Data request: What do you get for CN(CCOc1ccc(CC2SC(=O)NC2=O)cc1)c1ccccn1 (stereo not given) ?
Data returned: true

Data request: Follow-up item: "OC(Cn1cncn1)(Cn1cncn1)c1ccc(F)cc1F"
Data returned: true

Data request: What do you get for C1CCC(C(CC2CCCCN2)C2CCCCC2)CC1 (stereo not given) ?
Data returned: true

Data request: Now consider "COc1cc([C@@H]2c3cc4c(cc3[C@H](O)[C@H]3COC(=O)[C@H]23)OCO4)cc(OC)c1OC" and answer again.
Data returned: false

* * *

EXPERIMENTAL_DETAILS: Quantitative High-Throughput drug screen in 47 multiple myeloma cell lines against the NCATS MIPE library collection: EJM_DSMZ cell viability assay (AID 1918926; further: nearly all actives have a fitted effect of over 30% in size; further: potency means the concentration at half of the fitted maximal effect)
ASSAY_CONTEXT: EJM myeloma cell viability, CellTiter-Glo ATP, 48 h; series mostly up to 45.8 µM
Results filed as inconclusive are left out. Calls of active or inactive are those of the source. Calls follow the shape of the dose curve; as a rule, active = well fitted cell-killing curve with a large enough effect; inconclusive = small, poorly fitted or top-dose-only effect, or effect the other way; inactive = no such curve, though single readings can be large or run the other way.
MEASURED_METRIC: Potency

Past entries and their recorded results:
                                   molecule            reading
0  CCCCc1oc2ccc(NS(C)(=O)=O)cc2c1C(=O)c1ccc(OCCCN(CCCC)CCCC)cc1  16600 nM (active)
1  CC(C)C1CCC(C(=O)N[C@H](Cc2ccccc2)C(=O)O)CC1 (stereo partly drawn)           inactive
2  CC1(C)[C@H](C(=O)O)N2C(=O)C[C@H]2S1(=O)=O           inactive
3  CC(C)(C#N)c1cc(Cn2cncn2)cc(C(C)(C)C#N)c1           inactive
4       Cc1cccc(N(C)C(=S)Oc2ccc3ccccc3c2)c1           inactive
5     COc1cc(NS(=O)(=O)c2ccc(N)cc2)nc(OC)n1           inactive
6  COc1ccc(C(=O)CC(=O)c2ccc(C(C)(C)C)cc2)cc1   1480 nM (active)
7  Cc1onc(-c2ccccc2Cl)c1C(=O)N[C@@H]1C(=O)N2[C@@H]1SC(C)(C)[C@@H]2C(=O)O           inactive

Data request: Entry "COC(c1ccccc1)(c1ccccc1)[C@H](Oc1nc(C)cc(C)n1)C(=O)O" : reported Potency = ?
Data returned: inactive

* * *

EXPERIMENTAL_DETAILS: Quantitative High-Throughput drug screen in 47 multiple myeloma cell lines against the NCATS MIPE library collection: Karpas25_ECACC cell viability assay (AID 1918968; further: nearly all actives have a fitted effect of over 35% in size)
ASSAY_CONTEXT: Karpas25 myeloma viability, CellTiter-Glo ATP, 48 h; series mostly up to 45.8 µM
Excerpt: PI: Beverly A. Mock Ph.D. Laboratory of Cancer Biology and Genetics, Center for Cancer Research, National Cancer Institute, National Institute of Health, Bethesda, Maryland […] 5; Detector; 425V; Luminescence; Viewlux PerkinElmer. […] 1. […] Briefly, the corresponding myeloma cell lines were screened in 1,536-well plates with 500 cells, 5-uL per well for inhibition of cell viability (assessed by measuring ATP levels with CellTiterGlo). […]
Inconclusive results are not listed. Activity calls are given as the source filed them. Calls follow the shape of the dose curve; as a rule, active = well fitted cell-killing curve with a large enough effect; inconclusive = small, poorly fitted or top-dose-only effect, or effect the other way; inactive = no such curve, though single readings can be large or run the other way.
In this exercise, the only acceptable responses are 1.0 = active, 0.0 = inactive

In [3]: df
Out[3]:
                                   compound  answer_label
0  CCn1cc(C(=O)O)c(=O)c2cc(F)c(N3CCN(C)CC3)cc21           0.0
1                    NC(=O)c1ccc2[nH]ccc2c1           0.0
2  CNC1CCCN(c2c(F)cc3c(=O)c(C(=O)O)cn(C4CC4)c3c2OC)C1 (configuration not stated)           1.0

Data request: GET /call?item= "Cc1ccc(S(=O)(=O)N[C@@H](Cc2ccccc2)C(=O)CCl)cc1" returns the recorded outcome of this test.
Data returned: 1.0

Data request: Check "COC(=O)Nc1nc2ccc(C(=O)c3ccccc3)cc2[nH]1" too.
Data returned: 1.0

Data request: What do you get for "CN1CCN(c2c(F)cc3c(=O)c(C(=O)O)cn4c3c2OCN4C)CC1" ?
Data returned: 0.0

Data request: Then this compound: "CCCc1cc(C(N)=S)ccn1"
Data returned: 0.0

Data request: Now consider "Cn1nnc2c(C(N)=O)ncn2c1=O" and answer again.
Data returned: 0.0

Data request: Subsequent entry: "CCCCCCNC(=O)n1cc(F)c(=O)[nH]c1=O"
Data returned: 1.0

Data request: // same read-out, input: "COc1cc([C@@H]2c3cc4c(cc3[C@H](O)[C@H]3COC(=O)[C@H]23)OCO4)cc(OC)c1OC"
Data returned: 0.0

Data request: What about this compound? "Cc1cc(NS(=O)(=O)c2ccc(N)cc2)no1"
Data returned: 0.0

Data request: And "O=C(O)c1cc(=O)[nH]c(=O)[nH]1" ?
Data returned: 0.0

* * *

EXPERIMENTAL_DETAILS: qHTS profiling of the MIPE4 collection as inhibitors of Plasmodium falciparum (DD2) proliferation (Rep 2) (AID 743346)
ASSAY_CONTEXT: P. falciparum Dd2 in erythrocytes, SYBR Green DNA, 72 h; at 28.5 µM (top of the series) unless noted
MEASURED_METRIC: parasite growth, % of control (lower = inhibition) (%)
Kindly provide the numeric value in % only, without the unit symbol.

In [3]: df
Out[3]:
                                   molecule  reading
0  CC(C(=O)O)c1ccc2c(c1)CC(=O)c1ccccc1S2 (stereo not drawn)      187
1  CNS(=O)(=O)CCc1ccc2[nH]cc(C3CCN(C)CC3)c2c1     92.8
2                      O=c1cc(O)c(Cl)c[nH]1     20.4
3  CN(CCOc1ccc(CC2SC(=O)NC2=O)cc1)c1ccccn1 (stereo not drawn)     95.7
4  CCCCc1oc2ccc(NS(C)(=O)=O)cc2c1C(=O)c1ccc(OCCCN(CCCC)CCCC)cc1     18.2

Data request: Please give the measured parasite growth, % of control (lower = inhibition) for this molecule: CC(C)C1CCC(C(=O)N[C@H](Cc2ccccc2)C(=O)O)CC1 (stereo partly drawn)
Data returned: 109

Data request: Here is the next molecule: "CC(C)(C#N)c1cc(Cn2cncn2)cc(C(C)(C)C#N)c1"
Data returned: 88.7

Data request: Please do the same for "Nc1[nH]c(=O)ncc1F" as well.
Data returned: 158

Data request: For "CC1=CC(=O)c2ccccc2C1=O" then?
Data returned: 10.3

Data request: Same again, this time with COc1c(N2CCNC(C)C2)c(F)cc2c(=O)c(C(=O)O)cn(C3CC3)c12 (stereo not drawn)
Data returned: 23.4

Data request: Param item: "COc1cc2ncnc(Nc3cccc(Cl)c3)c2cc1OC"
Data returned: 24.1

Data request: Another molecule: "O=c1oc2c(O)c(O)cc3c(=O)oc4c(O)c(O)cc1c4c23"
Data returned: 5.89

Data request: Then what about the molecule CC(N)C12CC3CC(CC(C3)C1)C2 (stereo not drawn) ?
Data returned: 32.1

Data request: Quick one: "CS(=O)(=O)c1ccc([C@@H](O)[C@@H](CO)NC(=O)C(Cl)Cl)cc1"
Data returned: 55.8

Data request: Another molecule: "C#CCN[C@@H]1CCc2ccccc21"
Data returned: 95.4

Data request: Another molecule: "Cn1nnc2c(C(N)=O)ncn2c1=O"
Data returned: 120

Data request: Also CCOCC(O)COc1ccc(NC(=O)CC[S+](C)C)cc1 (stereo not drawn) , if possible.
Data returned: 97.7

Data request: And CCN1CCCC1CNC(=O)c1cc(S(N)(=O)=O)ccc1OC (stereo not drawn) ?
Data returned: 41.9

Data request: Same question for "CC(C)C[C@H](NC(=O)[C@H](CCc1ccccc1)NC(=O)CN1CCOCC1)C(=O)N[C@@H](Cc1ccccc1)C(=O)N[C@@H](CC(C)C)C(=O)[C@@]1(C)CO1" please.
Data returned: 9.09

Data request: One more molecule: "CC(C)(Sc1cc(C(C)(C)C)c(O)c(C(C)(C)C)c1)Sc1cc(C(C)(C)C)c(O)c(C(C)(C)C)c1"
Data returned: 24.6

Data request: Similarly, "COc1cc(NS(=O)(=O)c2ccc(N)cc2)nc(OC)n1" ?
Data returned: 87.6

Data request: And for "COc1cnc(NS(=O)(=O)c2ccc(N)cc2)nc1" ?
Data returned: 79.9

Data request: Would you kindly repeat that for "CC(C)(C)NC(=O)[C@H]1CC[C@H]2[C@@H]3CC[C@H]4NC(=O)C=C[C@]4(C)[C@H]3CC[C@]12C" ?
Data returned: 53
